experimentalTarget: glutathione S-transferase (GST)-fused full-length human Syk protein (Homo sapiens)
Construct: (GST)-fused full-length human Syk protein; GST (glutathione S-transferase); purchased Carna Biosciences
assayOverview: Syk enzyme assay
Format: biochemical
conditionsUsed: Syk enzyme assay, Test Example 1; read-out: IC50 of Syk-inhibitory activity
pIC50: −log10 of the molar value.
measurementType: pIC50

NC(=O)c1cc(F)c(NC2CCCCC2N)nc1Nc1ccnc(-c2ccco2)c1 (stereo not shown) :: > 8.00
CC(C)[C@@H](Nc1nc(Nc2ccc3ncccc3c2)c(C(N)=O)cc1F)C(N)=O :: 7.00 to 7.30
NC(=O)c1cc(F)c(N[C@@H]2CCCC[C@@H]2N)nc1Nc1cnc(-n2cccn2)c(Cl)c1 :: 7.30 to 8.00

Returns the measured pIC50 for the input compound. Input: Cc1cc(C)cc(Nc2nc(NCCN)c(F)cc2C(N)=O)c1
7.30 to 8.00

Next record, please: NC(=O)c1cc(F)c(NC2CCCCC2N)nc1Nc1ccnc(-c2cn[nH]c2)c1 (stereo not shown)
> 8.00

Request: CCC[C@@H](Nc1nc(Nc2cncc(Cl)c2)c(C(N)=O)cc1F)[C@H](C)N
> 8.00

These entries and their values trace back to patent US8895585B2.
